// provenance: PubChem BioAssay AID1918996

tested on: 349418-098-R-PDC complex spheroid growth; assay: Anticancer human tumor 349418-098-R-PDC patient-derived lung adenocarcinoma cell line growth inhibition [AhR]; settings: second compound 1 µM; first compound 0.316 µM; stronger effect = lower value
Endpoint Name: viability, T/C (%)

{"Compound": "COc1cc(Nc2ncc3c(n2)-c2ccc(Cl)cc2C(c2c(F)cccc2OC)=NC3)ccc1C(=O)O + CC(CO)NC(=O)c1cc(-c2ccc(Cl)cc2)nn(-c2cnn(C)c2)c1=O", "Recorded Number": 27.8}
{"Compound": "Nc1ccccc1NC(=O)c1ccc(CNC(=O)OCc2cccnc2)cc1 + CC(CO)NC(=O)c1cc(-c2ccc(Cl)cc2)nn(-c2cnn(C)c2)c1=O", "Recorded Number": 80.9}
{"Compound": "Nc1ccccc1NC(=O)c1ccc(CNC(=O)OCc2cccnc2)cc1 + Cc1cncc(-c2nc(NCCc3c[nH]c4ccccc34)c3ncn(C(C)C)c3n2)c1", "Recorded Number": 54.9}
{"Compound": "O=C(C=Cc1cccc(S(=O)(=O)Nc2ccccc2)c1)NO + Cc1ccccc1N=Nc1ccc(NC(=O)c2ccnn2C)c(C)c1", "Recorded Number": 69.3}
{"Compound": "CC1(C)CCC(CN2CCN(c3ccc(C(=O)NS(=O)(=O)c4ccc(NCC5CCOCC5)c([N+](=O)[O-])c4)c(Oc4cnc5[nH]ccc5c4)c3)CC2)=C(c2ccc(Cl)cc2)C1 + Cc1ccccc1N=Nc1ccc(NC(=O)c2ccnn2C)c(C)c1", "Recorded Number": 84.7}
{"Compound": "CC1COCCN1c1cc(C2(S(C)(=N)=O)CC2)nc(-c2ccnc3[nH]ccc23)n1 (stereo unspecified) + Cc1cncc(-c2nc(NCCc3c[nH]c4ccccc34)c3ncn(C(C)C)c3n2)c1", "Recorded Number": 85.2}

* * *

test system: 349418-098-R-PDC complex spheroid growth; experiment: Anticancer human tumor 349418-098-R-PDC cell line growth inhibition [AhR]; conditions: second compound 3.16 µM; first compound 0.1 µM; stronger effect = lower value;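 further: spheroids exposed to agents for seven days before luminescence viability read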;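 on viability, T/C: spheroids also contain HUVEC endothelial cells and human MSC stroma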
Let's look at some molecules and their measured viability, T/C.
Endpoint Name: viability, T/C (%)

{"Molecule": "COc1cccc2c1C(=O)c1c(O)c3c(c(O)c1C2=O)CC(O)(C(=O)CO)CC3OC1CC(N)C(O)C(C)O1 (stereo not given) + Cc1ccccc1N=Nc1ccc(NC(=O)c2ccnn2C)c(C)c1", "Endpoint Name": "viability, T/C", "Recorded Number": 18}
{"Molecule": "COc1cc(Nc2ncc3c(n2)-c2ccc(Cl)cc2C(c2c(F)cccc2OC)=NC3)ccc1C(=O)O + CC(CO)NC(=O)c1cc(-c2ccc(Cl)cc2)nn(-c2cnn(C)c2)c1=O", "Endpoint Name": "viability, T/C", "Recorded Number": 41.3}
{"Molecule": "NS(=O)(=O)OCC1CC(n2ccc3c(NC4CCc5ccccc54)ncnc32)CC1O (stereo not given) + Cc1cncc(-c2nc(NCCc3c[nH]c4ccccc34)c3ncn(C(C)C)c3n2)c1", "Endpoint Name": "viability, T/C", "Recorded Number": 26.2}
{"Molecule": "CC[C@@]1(O)C(=O)OCc2c1cc1n(c2=O)Cc2cc3c(CN(C)C)c(O)ccc3nc2-1 + Cc1ccccc1N=Nc1ccc(NC(=O)c2ccnn2C)c(C)c1", "Endpoint Name": "viability, T/C", "Recorded Number": 15.4}
{"Molecule": "CC(C)c1c(-c2ccccc2)nc2c(C#N)c[nH]n2c1=O + Cc1ccccc1N=Nc1ccc(NC(=O)c2ccnn2C)c(C)c1", "Endpoint Name": "viability, T/C", "Recorded Number": 89.9}
{"Molecule": "Nc1ncn(C2CC(O)C(CO)O2)c(=O)n1 (stereo not given) + Cc1cncc(-c2nc(NCCc3c[nH]c4ccccc34)c3ncn(C(C)C)c3n2)c1", "Endpoint Name": "viability, T/C", "Recorded Number": 17.4}
{"Molecule": "Nc1ccn(C2OC(CO)C(O)C2(F)F)c(=O)n1 (stereo not given) + Cc1cncc(-c2nc(NCCc3c[nH]c4ccccc34)c3ncn(C(C)C)c3n2)c1", "Endpoint Name": "viability, T/C", "Recorded Number": 6.5}
{"Molecule": "CC1COCCN1c1cc(-c2ccnn2C)c2ccnc(-c3ccn[nH]3)c2n1 (stereo not given) + Cc1ccccc1N=Nc1ccc(NC(=O)c2ccnn2C)c(C)c1", "Endpoint Name": "viability, T/C", "Recorded Number": 40.5}
{"Molecule": "CC1(C)CCC(CN2CCN(c3ccc(C(=O)NS(=O)(=O)c4ccc(NCC5CCOCC5)c([N+](=O)[O-])c4)c(Oc4cnc5[nH]ccc5c4)c3)CC2)=C(c2ccc(Cl)cc2)C1 + Cc1cncc(-c2nc(NCCc3c[nH]c4ccccc34)c3ncn(C(C)C)c3n2)c1", "Endpoint Name": "viability, T/C", "Recorded Number": 24.5}
{"Molecule": "CC1COCCN1c1cc(-c2ccnn2C)c2ccnc(-c3ccn[nH]3)c2n1 (stereo not given) + CC(CO)NC(=O)c1cc(-c2ccc(Cl)cc2)nn(-c2cnn(C)c2)c1=O", "Endpoint Name": "viability, T/C", "Recorded Number": 32.8}

* * *

test system: 349418-098-R-PDC complex spheroid growth; assay: Anticancer human tumor 349418-098-R-PDC cell line growth inhibition [AhR]; conditions: curve of first compound; second compound 0.316 µM;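 further: spheroids exposed to agents for seven days before luminescence viability read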
Let's look at some compounds and their measured IC50.
Endpoint Name: IC50

{"Compound": "COc1cccc2c1C(=O)c1c(O)c3c(c(O)c1C2=O)CC(O)(C(=O)CO)CC3OC1CC(N)C(O)C(C)O1 (stereo not drawn) + Cc1cncc(-c2nc(NCCc3c[nH]c4ccccc34)c3ncn(C(C)C)c3n2)c1", "Result": "< 31.6 nM"}
{"Compound": "Cn1ncnc1C1c2n[nH]c(=O)c3cc(F)cc(c23)NC1c1ccc(F)cc1 (stereo not drawn) + Cc1cncc(-c2nc(NCCc3c[nH]c4ccccc34)c3ncn(C(C)C)c3n2)c1", "Result": "> 100 nM"}
{"Compound": "Cn1ncnc1C1c2n[nH]c(=O)c3cc(F)cc(c23)NC1c1ccc(F)cc1 (stereo not drawn) + Cc1ccccc1N=Nc1ccc(NC(=O)c2ccnn2C)c(C)c1", "Result": "> 100 nM"}

* * *

test system: 349418-098-R-PDC complex spheroid growth; test: Anticancer human tumor 349418-098-R-PDC cell line growth inhibition [AhR]; conditions: curve of first compound; second compound 0.316 µM;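 further: spheroids exposed to agents for seven days before luminescence viability read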
Let's look at some compounds and their measured IC50.
Endpoint Name: IC50 (nM)

{"Compound": "CC1COCCN1c1cc(-c2ccnn2C)c2ccnc(-c3ccn[nH]3)c2n1 (stereo not drawn) + CC(CO)NC(=O)c1cc(-c2ccc(Cl)cc2)nn(-c2cnn(C)c2)c1=O", "Reading Qualifier": "=", "Recorded Number": 68.8}
{"Compound": "CC[C@@]1(O)C(=O)OCc2c1cc1n(c2=O)Cc2cc3c(CN(C)C)c(O)ccc3nc2-1 + Cc1cncc(-c2nc(NCCc3c[nH]c4ccccc34)c3ncn(C(C)C)c3n2)c1", "Reading Qualifier": "=", "Recorded Number": 14.1}
{"Compound": "Nc1ccccc1NC(=O)c1ccc(CNC(=O)OCc2cccnc2)cc1 + Cc1cncc(-c2nc(NCCc3c[nH]c4ccccc34)c3ncn(C(C)C)c3n2)c1", "Reading Qualifier": "=", "Recorded Number": 759}
{"Compound": "Nc1ncn(C2CC(O)C(CO)O2)c(=O)n1 (stereo not drawn) + Cc1cncc(-c2nc(NCCc3c[nH]c4ccccc34)c3ncn(C(C)C)c3n2)c1", "Reading Qualifier": "=", "Recorded Number": 221}
{"Compound": "NS(=O)(=O)OCC1CC(n2ccc3c(NC4CCc5ccccc54)ncnc32)CC1O (stereo not drawn) + Cc1ccccc1N=Nc1ccc(NC(=O)c2ccnn2C)c(C)c1", "Reading Qualifier": "=", "Recorded Number": 196}
{"Compound": "O=C(c1cc(Cc2n[nH]c(=O)c3ccccc23)ccc1F)N1CCN(C(=O)C2CC2)CC1 + Cc1ccccc1N=Nc1ccc(NC(=O)c2ccnn2C)c(C)c1", "Reading Qualifier": "=", "Recorded Number": 6200}
{"Compound": "CC1(C)CCC(CN2CCN(c3ccc(C(=O)NS(=O)(=O)c4ccc(NCC5CCOCC5)c([N+](=O)[O-])c4)c(Oc4cnc5[nH]ccc5c4)c3)CC2)=C(c2ccc(Cl)cc2)C1 + Cc1ccccc1N=Nc1ccc(NC(=O)c2ccnn2C)c(C)c1", "Reading Qualifier": "=", "Recorded Number": 6030}
{"Compound": "O=C(C=Cn1cnc(-c2cc(C(F)(F)F)cc(C(F)(F)F)c2)n1)NNc1cnccn1 + Cc1cncc(-c2nc(NCCc3c[nH]c4ccccc34)c3ncn(C(C)C)c3n2)c1", "Reading Qualifier": "=", "Recorded Number": 78.7}
{"Compound": "CCN(c1cc(-c2ccc(CN3CCOCC3)cc2)cc(C(=O)NCc2c(C)cc(C)[nH]c2=O)c1C)C1CCOCC1 + Cc1cncc(-c2nc(NCCc3c[nH]c4ccccc34)c3ncn(C(C)C)c3n2)c1", "Reading Qualifier": ">", "Recorded Number": 3000}
{"Compound": "Nc1ncn(C2CC(O)C(CO)S2)c(=O)n1 (stereo not drawn) + Cc1cncc(-c2nc(NCCc3c[nH]c4ccccc34)c3ncn(C(C)C)c3n2)c1", "Reading Qualifier": "=", "Recorded Number": 133}
{"Compound": "CC1COCCN1c1cc(C2(S(C)(=N)=O)CC2)nc(-c2ccnc3[nH]ccc23)n1 (stereo not drawn) + Cc1ccccc1N=Nc1ccc(NC(=O)c2ccnn2C)c(C)c1", "Reading Qualifier": "=", "Recorded Number": 2000}
{"Compound": "COc1cccc2c1C(=O)c1c(O)c3c(c(O)c1C2=O)CC(O)(C(=O)CO)CC3OC1CC(N)C(O)C(C)O1 (stereo not drawn) + Cc1ccccc1N=Nc1ccc(NC(=O)c2ccnn2C)c(C)c1", "Reading Qualifier": "<", "Recorded Number": 31.6}
{"Compound": "CCc1c2c(nc3ccc(O)cc13)-c1cc3c(c(=O)n1C2)COC(=O)[C@]3(O)CC + Cc1ccccc1N=Nc1ccc(NC(=O)c2ccnn2C)c(C)c1", "Reading Qualifier": "<", "Recorded Number": 0.949}
{"Compound": "CC[C@@]1(O)C(=O)OCc2c1cc1n(c2=O)Cc2cc3c(CN(C)C)c(O)ccc3nc2-1 + Cc1ccccc1N=Nc1ccc(NC(=O)c2ccnn2C)c(C)c1", "Reading Qualifier": "=", "Recorded Number": 11.3}
{"Compound": "COc1cc(C2c3cc4c(cc3C(OC3OC5COC(C)OC5C(O)C3O)C3COC(=O)C23)OCO4)cc(OC)c1O (stereo not drawn) + CC(CO)NC(=O)c1cc(-c2ccc(Cl)cc2)nn(-c2cnn(C)c2)c1=O", "Reading Qualifier": "=", "Recorded Number": 607}
{"Compound": "COc1cc(Nc2ncc3c(n2)-c2ccc(Cl)cc2C(c2c(F)cccc2OC)=NC3)ccc1C(=O)O + Cc1ccccc1N=Nc1ccc(NC(=O)c2ccnn2C)c(C)c1", "Reading Qualifier": "=", "Recorded Number": 157}
{"Compound": "COc1cc(C2c3cc4c(cc3C(OC3OC5COC(C)OC5C(O)C3O)C3COC(=O)C23)OCO4)cc(OC)c1O (stereo not drawn) + Cc1ccccc1N=Nc1ccc(NC(=O)c2ccnn2C)c(C)c1", "Reading Qualifier": "=", "Recorded Number": 243}
{"Compound": "CC(C)CC(NC(=O)C(Cc1ccccc1)NC(=O)c1cnccn1)B(O)O (stereo not drawn) + CC(CO)NC(=O)c1cc(-c2ccc(Cl)cc2)nn(-c2cnn(C)c2)c1=O", "Reading Qualifier": "<", "Recorded Number": 0.949}
{"Compound": "CC1COCCN1c1cc(-c2ccnn2C)c2ccnc(-c3ccn[nH]3)c2n1 (stereo not drawn) + Cc1cncc(-c2nc(NCCc3c[nH]c4ccccc34)c3ncn(C(C)C)c3n2)c1", "Reading Qualifier": "=", "Recorded Number": 150}
{"Compound": "CC(C)CC(NC(=O)C(Cc1ccccc1)NC(=O)c1cnccn1)B(O)O (stereo not drawn) + Cc1cncc(-c2nc(NCCc3c[nH]c4ccccc34)c3ncn(C(C)C)c3n2)c1", "Reading Qualifier": "=", "Recorded Number": 1.28}
{"Compound": "NS(=O)(=O)OCC1CC(n2ccc3c(NC4CCc5ccccc54)ncnc32)CC1O (stereo not drawn) + CC(CO)NC(=O)c1cc(-c2ccc(Cl)cc2)nn(-c2cnn(C)c2)c1=O", "Reading Qualifier": "=", "Recorded Number": 149}
{"Compound": "COc1cc(Nc2ncc3c(n2)-c2ccc(Cl)cc2C(c2c(F)cccc2OC)=NC3)ccc1C(=O)O + CC(CO)NC(=O)c1cc(-c2ccc(Cl)cc2)nn(-c2cnn(C)c2)c1=O", "Reading Qualifier": "=", "Recorded Number": 47.4}
{"Compound": "CCN(c1cc(-c2ccc(CN3CCOCC3)cc2)cc(C(=O)NCc2c(C)cc(C)[nH]c2=O)c1C)C1CCOCC1 + CC(CO)NC(=O)c1cc(-c2ccc(Cl)cc2)nn(-c2cnn(C)c2)c1=O", "Reading Qualifier": ">", "Recorded Number": 3000}
